tested on: pfB74F6 (PS); assay: Malaria SYBR fluorescence (MSF) blood stage assay, pfB74F6; format: cell-based; conditions: Plasmodium falciparum; blood stage, pfB74F6, sample collected from patients; read-out: IC50 (nM) Mean
measured_parameter: IC50 (nM)

{"compound": "C[C@@H]1CC[C@H]2[C@@H](C)C(=O)O[C@@H]3O[C@@]4(C)CC[C@@H]1[C@]32OO4", "recorded_number": 14.5}

---

test system: pfDd2; assay: Malaria SYBR fluorescence (MSF) blood stage assay, pfDd2; type: cell-based; conditions: Plasmodium falciparum, 72 h, read-out: IC50 (nM) Mean

{"compound": "CCN(CC)CCCC(C)Nc1ccnc2cc(Cl)ccc12 (stereo not shown)", "IC50 (nM)": 244}

---

system: pfB47D6 (PS); assay: Malaria SYBR fluorescence (MSF) blood stage assay, pfB47D6; format: cell-based; details: Plasmodium falciparum, read-out: IC50 (nM) Mean

{"molecule": "CCN(CC)CCCC(C)Nc1ccnc2cc(Cl)ccc12 (stereo not shown)", "unit_label": "nM", "IC50": 78.2}

---

system: Plasmodium berghei ANKA 868 expressing luciferase; experiment: Inhibition of liver stage development assay (ILSDA) in HepG2 cells; assay type: cell-based; conditions: HepG2, read-out: PQ Mean (IC50)

{"compound": "COc1cc(NC(C)CCCN)c2ncccc2c1 (stereo not shown)", "IC50 [nM]": 1730}

---

Test system: pfB74C4 (PS)
Experiment: Malaria SYBR fluorescence (MSF) blood stage assay, pfB74C4
Assay type: cell-based
Settings: Plasmodium falciparum, read-out: IC50 (nM) Mean
Description: Fifteen different preparations of decoquinate solid solutions as described in Examples were tested in cell culture assays to assess the growth inhibition of blood stage Plasmodium in freshly isolated human blood cells and the growth inhibition of Plasmodium in the liver stage in cell culture of HepG2 cells. The malaria SYBR fluorescence (MSF) assay was performed to detect the parasite DNA of Plasmodium falciparum in late-ring or early-trophozoite stages. […]
measured_parameter: IC50 (nM)

{"molecule": "CCN(CC)CCCC(C)Nc1ccnc2cc(Cl)ccc12 (stereo not shown)", "recorded_number": 59.3}

---

tested on: pfB12D9 (PS); assay: Malaria SYBR fluorescence (MSF) blood stage assay, pfB12D9; type: cell-based; settings: Plasmodium falciparum, read-out: IC50 (nM) Mean
The compounds listed here are annotated with their IC50.

{"compound": "C[C@@H]1CC[C@H]2[C@@H](C)C(=O)O[C@@H]3O[C@@]4(C)CC[C@@H]1[C@]32OO4", "system": "pfB12D9 (PS)", "IC50 (nM)": 24.1}
{"compound": "CCN(CC)CCCC(C)Nc1ccnc2cc(Cl)ccc12 (centres unmarked)", "system": "pfB12D9 (PS)", "IC50 (nM)": 63.3}
